Data origin, for the record: paper PMC5349851

// binding signal lookup, one value per entry
- Target of assay: FOS;BATF (Homo sapiens;Homo sapiens, UniProt P01100;Q16520 128-201;17-90, |)
- Sequence (P01100 other isoform, or with tags, fused parts or gaps |, chain 1 of 2): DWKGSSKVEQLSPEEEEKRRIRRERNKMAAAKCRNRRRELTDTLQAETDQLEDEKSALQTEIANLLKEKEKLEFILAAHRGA
- Sequence (Q16520 other isoform, or with tags, fused parts or gaps |, chain 2 of 2): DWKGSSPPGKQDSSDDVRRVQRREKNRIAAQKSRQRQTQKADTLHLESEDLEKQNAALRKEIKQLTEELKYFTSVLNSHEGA
- Test method notes: SELEX-seq (CSI, HT-SELEX, round 3); SELEX-seq: 1x PBS (10 mM phosphate, 137 mM NaCl, 2.7 mM KCl) pH 7.6, 2.5 mM DTT, 50 ng/ul poly dI-dC, 0.1% BSA, 50 nM biotinylated bZIP (1:3 with partner for heterodimers), 100 nM library, room temperature, 1 h, 3 rounds; high values mean tight binding
- Details: protein: recombinant;recombinant; copies: 1;1; dsDNA, one strand shown

Known results for sequences:
Sure, the documented binding signal for `ATGACGCAAT` is 0.00539 relative CSI intensity (max = 1)

Sure, the documented binding signal for `ATGACGTAAT` is 0.0179 relative CSI intensity (max = 1)

Next:
Sure, the documented binding signal for `CCTGACGTCA` is 0.0057 relative CSI intensity (max = 1)

Sure, the documented binding signal for `ATGACGTCAT` is 1 relative CSI intensity (max = 1)

* * *

- Target of assay: BATF3;ATF4 (Homo sapiens;Homo sapiens, UniProt Q9NR55;P18848 26-99;269-346, |)
- Sequence (Q9NR55 other isoform, or with tags, fused parts or gaps |, chain 1 of 2): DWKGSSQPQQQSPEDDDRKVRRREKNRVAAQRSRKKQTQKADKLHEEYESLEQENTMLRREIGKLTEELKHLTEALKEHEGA
- Sequence (P18848 other isoform, or with tags, fused parts or gaps |, chain 2 of 2): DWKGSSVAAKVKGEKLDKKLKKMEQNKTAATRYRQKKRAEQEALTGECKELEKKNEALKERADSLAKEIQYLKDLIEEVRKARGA
- Test method notes: SELEX-seq (CSI, HT-SELEX, round 3); SELEX-seq: 1x PBS (10 mM phosphate, 137 mM NaCl, 2.7 mM KCl) pH 7.6, 2.5 mM DTT, 50 ng/ul poly dI-dC, 0.1% BSA, 50 nM biotinylated bZIP (1:3 with partner for heterodimers), 100 nM library, room temperature, 1 h, 3 rounds; high values mean tight binding
- Details: protein: recombinant;recombinant; copies: 1;1; dsDNA, one strand shown
// binding signal lookup, one value per entry

Sure, the documented binding signal for `ATGACGCAAT` is 0.00858 relative CSI intensity (max = 1)

Next:
Sure, the documented binding signal for `ATGACGTAAT` is 0.048 relative CSI intensity (max = 1)

Sure, the documented binding signal for `ATGACGTCAT` is 0.748 relative CSI intensity (max = 1)

Sure, the documented binding signal for `ATGATGCAAT` is 0.00441 relative CSI intensity (max = 1)

Sure, the documented binding signal for `ATGACGGAAT` is 0.00174 relative CSI intensity (max = 1)

* * *

- Target of assay: ATF3;CEBPA (Homo sapiens;Homo sapiens, UniProt P18847;P49715 77-150;273-345, |)
- Sequence (P18847 other isoform, or with tags, fused parts or gaps |, chain 1 of 2): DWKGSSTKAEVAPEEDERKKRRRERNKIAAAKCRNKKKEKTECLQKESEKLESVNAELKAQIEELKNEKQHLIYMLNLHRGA
- Sequence (P49715 other isoform, or with tags, fused parts or gaps |, chain 2 of 2): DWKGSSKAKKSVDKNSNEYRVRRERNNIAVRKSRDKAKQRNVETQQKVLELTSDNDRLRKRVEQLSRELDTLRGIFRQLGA
- Test method notes: SELEX-seq (CSI, HT-SELEX, round 3); SELEX-seq: 1x PBS (10 mM phosphate, 137 mM NaCl, 2.7 mM KCl) pH 7.6, 2.5 mM DTT, 50 ng/ul poly dI-dC, 0.1% BSA, 50 nM biotinylated bZIP (1:3 with partner for heterodimers), 100 nM library, room temperature, 1 h, 3 rounds; high values mean tight binding
- Details: protein: recombinant;recombinant; copies: 1;1; dsDNA, one strand shown
Readout: binding signal

Sure, the documented binding signal for `CCTGACGTCA` is 0.18 relative CSI intensity (max = 1)

Sure, the documented binding signal for `ATGACGGAAT` is 0.105 relative CSI intensity (max = 1)

Sure, the documented binding signal for `ATGACGTCAT` is 1 relative CSI intensity (max = 1)

Sure, the documented binding signal for `ATGATGCAAT` is 0.655 relative CSI intensity (max = 1)

* * *

- Target of assay: MAFB;ATF5 (Homo sapiens;Homo sapiens, UniProt Q9Y5Q3;Q9Y2D1 212-305;199-275, |)
- Sequence (Q9Y5Q3 other isoform, or with tags, fused parts or gaps |, chain 1 of 2): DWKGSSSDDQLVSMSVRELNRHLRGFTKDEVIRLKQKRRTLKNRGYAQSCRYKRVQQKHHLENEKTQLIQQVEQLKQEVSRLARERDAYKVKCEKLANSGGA
- Sequence (Q9Y2D1 other isoform, or with tags, fused parts or gaps |, chain 2 of 2): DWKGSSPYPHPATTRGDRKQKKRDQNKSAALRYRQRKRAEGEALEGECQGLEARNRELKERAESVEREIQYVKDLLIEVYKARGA
- Test method notes: SELEX-seq (CSI, HT-SELEX, round 3); SELEX-seq: 1x PBS (10 mM phosphate, 137 mM NaCl, 2.7 mM KCl) pH 7.6, 2.5 mM DTT, 50 ng/ul poly dI-dC, 0.1% BSA, 50 nM biotinylated bZIP (1:3 with partner for heterodimers), 100 nM library, room temperature, 1 h, 3 rounds; high values mean tight binding
- Details: protein: recombinant;recombinant; copies: 1;1; dsDNA, one strand shown
// binding signal lookup, one value per entry

binding signal value, target or system MAFB;ATF5 (Homo sapiens;Homo sapiens, UniProt Q9Y5Q3;Q9Y2D1 212-305;199-275, |), for `ATGACGTCAT` : 0.148 relative CSI intensity (max = 1)

* * *

// binding signal lookup, one value per entry
- Target of assay: JUN;CEBPG (Homo sapiens;Homo sapiens, UniProt P05412;P53567 243-316;52-130, |)
- Sequence (P05412 other isoform, or with tags, fused parts or gaps |, chain 1 of 2): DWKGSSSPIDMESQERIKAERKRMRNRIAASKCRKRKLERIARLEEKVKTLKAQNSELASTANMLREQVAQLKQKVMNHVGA
- Sequence (P53567 other isoform, or with tags, fused parts or gaps |, chain 2 of 2): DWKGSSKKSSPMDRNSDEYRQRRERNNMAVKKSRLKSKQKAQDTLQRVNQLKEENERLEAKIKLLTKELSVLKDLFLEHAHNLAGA
- Test method notes: SELEX-seq (CSI, HT-SELEX, round 3); SELEX-seq: 1x PBS (10 mM phosphate, 137 mM NaCl, 2.7 mM KCl) pH 7.6, 2.5 mM DTT, 50 ng/ul poly dI-dC, 0.1% BSA, 50 nM biotinylated bZIP (1:3 with partner for heterodimers), 100 nM library, room temperature, 1 h, 3 rounds; high values mean tight binding
- Details: protein: recombinant;recombinant; copies: 1;1; dsDNA, one strand shown

Known results for sequences:
Sure, the documented binding signal for `ATGACGCAAT` is 1 relative CSI intensity (max = 1)

Sure, the documented binding signal for `ATGACGTCAT` is 0.705 relative CSI intensity (max = 1)

Sure, the documented binding signal for `ATGACGTAAT` is 0.246 relative CSI intensity (max = 1)

Next:
Sure, the documented binding signal for `ATGACGGAAT` is 0.0184 relative CSI intensity (max = 1)

* * *

- Target of assay: JUNB;NFE2 (Homo sapiens;Homo sapiens, UniProt P17275;Q16621 259-332;221-337, |)
- Sequence 1: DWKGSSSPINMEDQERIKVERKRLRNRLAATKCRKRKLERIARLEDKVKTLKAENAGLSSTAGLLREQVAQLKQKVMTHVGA
- Sequence 2: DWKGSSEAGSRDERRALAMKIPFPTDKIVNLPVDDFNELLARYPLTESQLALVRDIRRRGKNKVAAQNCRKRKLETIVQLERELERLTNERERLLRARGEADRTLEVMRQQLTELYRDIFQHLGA
- Test method notes: SELEX-seq (CSI, HT-SELEX, round 3); SELEX-seq: 1x PBS (10 mM phosphate, 137 mM NaCl, 2.7 mM KCl) pH 7.6, 2.5 mM DTT, 50 ng/ul poly dI-dC, 0.1% BSA, 50 nM biotinylated bZIP (1:3 with partner for heterodimers), 100 nM library, room temperature, 1 h, 3 rounds; high values mean tight binding
- Details: protein: recombinant;recombinant; copies: 1;1; dsDNA, one strand shown
// binding signal lookup, one value per entry

Sure, the documented binding signal for `ATGACGTAAT` is 0.12 relative CSI intensity (max = 1)

Next:
Sure, the documented binding signal for `ATGACGGAAT` is 0.0241 relative CSI intensity (max = 1)

Sure, the documented binding signal for `ATGACGTCAT` is 1 relative CSI intensity (max = 1)

Sure, the documented binding signal for `CCTGACGTCA` is 0.0277 relative CSI intensity (max = 1)

Sure, the documented binding signal for `ATGATGCAAT` is 0.116 relative CSI intensity (max = 1)

* * *

- Target of assay: FOSL1;JUN (Homo sapiens;Homo sapiens, UniProt P15407;P05412 96-169;243-316, |)
- Sequence (P15407 other isoform, or with tags, fused parts or gaps |, chain 1 of 2): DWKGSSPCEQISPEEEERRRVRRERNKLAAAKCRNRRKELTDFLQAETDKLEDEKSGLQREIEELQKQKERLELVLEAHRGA
- Sequence (P05412 other isoform, or with tags, fused parts or gaps |, chain 2 of 2): as the sequence (P05412 other isoform, or with tags, fused parts or gaps |, chain 1 of 2) above
- Test method notes: SELEX-seq (CSI, HT-SELEX, round 3); SELEX-seq: 1x PBS (10 mM phosphate, 137 mM NaCl, 2.7 mM KCl) pH 7.6, 2.5 mM DTT, 50 ng/ul poly dI-dC, 0.1% BSA, 50 nM biotinylated bZIP (1:3 with partner for heterodimers), 100 nM library, room temperature, 1 h, 3 rounds; high values mean tight binding
- Details: protein: recombinant;recombinant; copies: 1;1; dsDNA, one strand shown
Readout: binding signal

Known results for sequences:
Sure, the documented binding signal for `CCTGACGTCA` is 0.00953 relative CSI intensity (max = 1)

Sure, the documented binding signal for `ATGATGCAAT` is 0.00257 relative CSI intensity (max = 1)

Sure, the documented binding signal for `ATGACGGAAT` is 0.00225 relative CSI intensity (max = 1)

Sure, the documented binding signal for `ATGACGTCAT` is 0.478 relative CSI intensity (max = 1)

Next:
Sure, the documented binding signal for `ATGACGCAAT` is 0.0151 relative CSI intensity (max = 1)

* * *

- Target of assay: NFE2L1;MAFG (Homo sapiens;Homo sapiens, UniProt Q14494;O15525 609-725;25-124, |)
- Test method notes: SELEX-seq (CSI, HT-SELEX, round 3); SELEX-seq: 1x PBS (10 mM phosphate, 137 mM NaCl, 2.7 mM KCl) pH 7.6, 2.5 mM DTT, 50 ng/ul poly dI-dC, 0.1% BSA, 50 nM biotinylated bZIP (1:3 with partner for heterodimers), 100 nM library, room temperature, 1 h, 3 rounds; high values mean tight binding
- Details: protein: recombinant;recombinant; copies: 1;1; dsDNA, one strand shown
// binding signal lookup, one value per entry

Known results for sequences:
Sure, the documented binding signal for `ATGACGTCAT` is 0.0138 relative CSI intensity (max = 1)

Sure, the documented binding signal for `ATGACGCAAT` is 0.00759 relative CSI intensity (max = 1)

Sure, the documented binding signal for `ATGACGTAAT` is 0.0021 relative CSI intensity (max = 1)

Sure, the documented binding signal for `ATGATGCAAT` is 0.00579 relative CSI intensity (max = 1)

Next:
Sure, the documented binding signal for `ATGACGGAAT` is 0.00175 relative CSI intensity (max = 1)
